read-out: Cytochrome P450 3A4 (Homo sapiens); assay: LTEA_HepaRG_CYP3A4: Life Technologies and Expression Analysis (LTEA) Assay for CYP3A4 using HepaRG (AID 2283487); settings: mRNA level, 48 h; actives raise or lower the signal
Active and inactive are the calls of the source. The calls were made as follows: active = hit-call score of the fitted dose curve at least 0.9, where 1 is the maximum; inactive = score below 0.9.
Assign a class; possible classes are t = active, f = inactive

**Query** Given CCC(=NOC/C=C/Cl)C1=C(O)CC(C2CCOCC2)CC1=O (configuration not stated) , state the outcome it received in this test.
**Result** f

**Query** Same for `CC(C)[C@H](C(=O)O[C@H](C#N)c1cccc(Oc2ccccc2)c1)c1ccc(Cl)cc1`
**Result** t

**Query** Try this compound next: `CCCCOC(=O)c1ccccc1C(=O)O`
**Result** f

**Query** Now this one: CC(COc1ccc(Oc2ccccc2)cc1)Oc1ccccn1 (configuration not stated)
**Result** t

**Query** Next: `CNC(=O)ON=C(SC)C(=O)N(C)C`
**Result** f

**Query** Next entry: `CCCOCC(=Nc1ccc(Cl)cc1C(F)(F)F)n1ccnc1`
**Result** t

**Query** How about CCc1cnc(C2=NC(C)(C(C)C)C(=O)N2)c(C(=O)O)c1 (configuration not stated) ?
**Result** f

**Query** Cool, now `CC(C)N(C(=O)SCC(Cl)=C(Cl)Cl)C(C)C`
**Result** f

**Query** # repeat for `CSc1nnc(C(C)(C)C)c(=O)n1N`
**Result** f

**Query** Subsequent entry: `CC1(C(=O)Nc2ccc(O)c(Cl)c2Cl)CCCCC1`
**Result** t

**Query** Subsequent entry: `COc1ccc(C(=CC(=O)N2CCOCC2)c2ccc(Cl)cc2)cc1OC`
**Result** t

**Query** Now consider `C[Si](Cn1cncn1)(c1ccc(F)cc1)c1ccc(F)cc1` and answer again.
**Result** t

----------
read-out: Vascular cell adhesion molecule 1 (VCAM1), VCAM1 (gene 7412); assay: BSK_CASM3C_VCAM1: BioMAP Diversity Plus: CASM3C Assay for Vascular cell adhesion molecule 1 (VCAM1) Biomarker Activity (AID 2283055); settings: primary human coronary artery smooth muscle cells; actives raise or lower the signal;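 also: VCAM-1 protein level quantified by ELISA on the cells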
Active and inactive are the calls of the source. The calls were made as follows: active = hit-call score of the fitted dose curve at least 0.9, where 1 is the maximum; inactive = score below 0.9.
Please state which outcome applies, choosing from active, inactive

**Query** Could you kindly confirm the outcome this assay logged for `C[Si](Cn1cncn1)(c1ccc(F)cc1)c1ccc(F)cc1` ?
**Result** inactive

**Query** For `CC(C)N(C(=O)SCC(Cl)=C(Cl)Cl)C(C)C` then?
**Result** inactive

**Query** And CC(C1CC1)C(O)(Cn1cncn1)c1ccc(Cl)cc1 (centres undefined) ?
**Result** inactive

**Query** Input CCc1cnc(C2=NC(C)(C(C)C)C(=O)N2)c(C(=O)O)c1 (centres undefined)
**Result** inactive

**Query** Cool, now `CCCOc1nn(C(=O)NS(=O)(=O)c2ccccc2C(=O)OC)c(=O)n1C`
**Result** inactive

**Query** Continue with `O=c1ccc(=O)[nH][nH]1`
**Result** inactive

**Query** Thanks! And `CCOP(=S)(OCC)Oc1ccc([N+](=O)[O-])cc1` ?
**Result** inactive

**Query** Record: `CC[C@H](C)[C@H]1O[C@]2(C=C[C@@H]1C)C[C@@H]1C[C@@H](C/C=C(\C)[C@@H](O[C@H]3C[C@H](OC)[C@@H](O[C@H]4C[C@H](OC)[C@@H](NC)[C@H](C)O4)[C@H](C)O3)[C@@H](C)/C=C/C=C3\CO[C@@H]4[C@H](O)C(C)=C[C@@H](C(=O)O1)[C@]34O)O2`
**Result** active

**Query** Another: CCOP(=O)(SC(C)CC)N1CCSC1=O (centres undefined)
**Result** inactive

----------
molecular target: human Phosphodiesterase 5 (PDE5), PDE5A (gene 8654) (UniProt O76074); experiment: NVS_ENZ_hPDE5: NovaScreen (NVS) Enzymatic Assay for human Phosphodiesterase 5 (PDE5) (AID 2283194)
Records with an inconclusive call do not appear. The source made the active and inactive calls. The calls were made as follows: active = hit-call score of the fitted dose curve at least 0.9, where 1 is the maximum; inconclusive = response in the unintended direction; inactive = score below 0.9.
Output constraint: value belongs to Y for active, N for inactive

**Query** Which outcome did this test record for the compound `C[Si](Cn1cncn1)(c1ccc(F)cc1)c1ccc(F)cc1` ?
**Result** N

**Query** Now the same for `CSc1nc(NC(C)C)nc(NC(C)C)n1`
**Result** Y

**Query** Proceed to `CN(C)[C@@H]1C(=O)C(C(N)=O)=C(O)[C@@]2(O)C(=O)C3=C(O)c4c(O)cccc4[C@@](C)(O)[C@H]3[C@H](O)[C@@H]12`
**Result** Y

**Query** What about `CCNc1nc(Cl)nc(NC(C)(C)C#N)n1` ?
**Result** Y

----------
assay: APR_HepG2_MitoticArrest_24hr: Apredica 24-hour HepG2 Assay for Mitotic Arrest (AID 2282910); conditions: high-content imaging, actives raise or lower the signal
Activity calls are given as the source filed them. Rule for the calls: active = hit-call score of the fitted dose curve at least 0.9, where 1 is the maximum; inactive = score below 0.9.
The reply should be one of these categories: true = active, false = inactive

**Query** Record request — test call for `O=[N+]([O-])c1cc(C(F)(F)F)c(Cl)c([N+](=O)[O-])c1Nc1ncc(C(F)(F)F)cc1Cl`
**Result** false

**Query** Thanks! And COP(=O)(OC)OC(Br)C(Cl)(Cl)Br (stereo not given) ?
**Result** true

**Query** // same read-out, input: `CCCOCC(=Nc1ccc(Cl)cc1C(F)(F)F)n1ccnc1`
**Result** false

**Query** And what about the compound `CCNc1nc(Cl)nc(NC(C)(C)C#N)n1` ?
**Result** false

**Query** Do the same for `CCC(CC)Nc1c([N+](=O)[O-])cc(C)c(C)c1[N+](=O)[O-]` please
**Result** false

**Query** Also check `COc1ccc(C(=CC(=O)N2CCOCC2)c2ccc(Cl)cc2)cc1OC`
**Result** false

**Query** Now consider `CC(C)[C@H](C(=O)O[C@H](C#N)c1cccc(Oc2ccccc2)c1)c1ccc(Cl)cc1` .
**Result** false

**Query** Again, but for COP(=O)(NC(C)=O)SC (stereo not given)
**Result** false

**Query** Try this compound next: `CSc1nc(NC(C)C)nc(NC(C)C)n1`
**Result** false

**Query** And then `C=C(C)[C@H]1Cc2c(ccc3c2O[C@@H]2COc4cc(OC)c(OC)cc4[C@@H]2C3=O)O1` , what is it?
**Result** false

**Query** Can you check FC(F)C(F)(F)OCC(Cn1cncn1)c1ccc(Cl)cc1Cl (stereo not given) next?
**Result** false

**Query** And the next one, `CC1=NNC(=O)N(/N=C/c2cccnc2)C1` ?
**Result** false

**Query** Another compound: `O=C(O)c1cc(Oc2ccc(C(F)(F)F)cc2Cl)ccc1[N+](=O)[O-]`
**Result** false

**Query** // next record `CCOP(=S)(OCC)Oc1cc(C)nc(C(C)C)n1`
**Result** false

**Query** // repeat for `CCc1cccc(CC)c1N(COC)C(=O)CCl` and report
**Result** true

**Query** Also check `CC(=NC#N)N(C)Cc1ccc(Cl)nc1`
**Result** false

**Query** Now the compound `CSC1=N[C@@](C)(c2ccccc2)C(=O)N1Nc1ccccc1`
**Result** false

**Query** Then what about the compound `CSc1nnc(C(C)(C)C)c(=O)n1N` ?
**Result** false

**Query** Next compound: `CCOP(=O)(OCC)Oc1cc(C)nc(C(C)C)n1`
**Result** false

**Query** Now try CCc1cccc(C)c1N(C(=O)CCl)C(C)COC (stereo not given) .
**Result** false

**Query** Do the same for CCC(=NOC/C=C/Cl)C1=C(O)CC(C2CCOCC2)CC1=O (stereo not given) please
**Result** false

**Query** Try this compound too: `CC(C)N(C(=O)SCC(Cl)=C(Cl)Cl)C(C)C`
**Result** false

**Query** // repeat for `COc1cc(OC)nc(Sc2cccc(Cl)c2C(=O)O)n1` and report
**Result** false

**Query** // repeat for CCOC(=O)CC(SP(=O)(OC)OC)C(=O)OCC (stereo not given) and report
**Result** false

**Query** Another compound: `C[Si](Cn1cncn1)(c1ccc(F)cc1)c1ccc(F)cc1`
**Result** false

----------
experiment: CCTE_Mundy_HCI_Cortical_NOG_NeuriteCount: CCTE's Neurite Outgrowth Assay in rat cortical cells for Neurite Count, Mundy Lab (AID 2284212);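 also: cells fixed about two days after chemical exposure began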
Activity calls are given as the source filed them. How the source made its calls: active means hit-call score of the fitted dose curve at least 0.9, where 1 is the maximum; inactive means score below 0.9.
QUANTITY MEASURED: outcome

>>> reading("CCCSP(=O)(OCC)Oc1ccc(Br)cc1Cl (stereo not drawn)")
"inactive"
>>> reading("C[N+]1(C)CCCCC1")
"inactive"
>>> reading("CCOP(=O)(SC(C)CC)N1CCSC1=O (stereo not drawn)")
"inactive"
